Quick list: pIC50 per entry.
tested on: A-431; test: Growth inhibition of human A431 cells after 72 hrs by MTT assay; type: functional, cell-based; conditions: Homo sapiens, A-431, 72 h
Please express pIC50 as -log10 of the molar concentration.

Solved entries:
{"compoundStructureString": "COc1cc2c(Nc3ccc(Cl)cc3)ncnc2c(OC)c1OC", "recordedMeasurement": 4.72}
{"compoundStructureString": "COc1cc2c(Nc3ccc(Br)cc3Cl)ncnc2c(OC)c1OC", "recordedMeasurement": 4.29}
{"compoundStructureString": "COc1cc2c(Nc3cccc(Br)c3)ncnc2c(OC)c1OC", "recordedMeasurement": 5.12}
{"compoundStructureString": "COc1cc2c(cc1Nc1ncnc3c(OC)c(OC)c(OC)cc13)oc1ccccc12", "recordedMeasurement": 5.05}
{"compoundStructureString": "COc1cc2c(Nc3ccccc3[N+](=O)[O-])ncnc2c(OC)c1OC", "recordedMeasurement": 4.51}
{"compoundStructureString": "COc1cc2c(Nc3ccc([N+](=O)[O-])cc3)ncnc2c(OC)c1OC", "recordedMeasurement": 4.34}
{"compoundStructureString": "COc1cc2c(Nc3cccc(F)c3)ncnc2c(OC)c1OC", "recordedMeasurement": 4.53}
{"compoundStructureString": "COc1cc(Nc2ncnc3c(OC)c(OC)c(OC)cc23)cc(OC)c1OC", "recordedMeasurement": 4.18}

Lab request: please report pIC50 under test system A-431 for `COc1cc2c(Nc3ccccc3F)ncnc2c(OC)c1OC`
4.14

Same thing, different molecule: `COc1cc2c(N[C@@H](C)c3ccccc3)ncnc2c(OC)c1OC`
4.92

* * *

test system: Bcap37; experiment: Growth inhibition of human Bcap37 cells after 72 hrs by MTT assay; type: functional, cell-based; conditions: Homo sapiens, Bcap37, 72 h
Labelling field: enter True if recorded IC50 is less than 30 µM. Enter False if it equals or exceeds that cut-off.

Some entries whose results are on file:
{"compoundStructureString": "COc1cc2c(Nc3ccc(Br)cc3Cl)ncnc2c(OC)c1OC", "class": "False"}
{"compoundStructureString": "COc1cc2c(Nc3cccc(Cl)c3)ncnc2c(OC)c1OC", "class": "True"}
{"compoundStructureString": "COc1cc2c(=NCc3ccccc3)[nH]cnc2c(OC)c1OC", "class": "False"}
{"compoundStructureString": "COc1cc2c(N[C@@H](C)c3ccccc3)ncnc2c(OC)c1OC", "class": "True"}
{"compoundStructureString": "COc1cc2c(N[C@H](C)c3ccccc3)ncnc2c(OC)c1OC", "class": "True"}
{"compoundStructureString": "COc1cc2c(Nc3ccc([N+](=O)[O-])cc3)ncnc2c(OC)c1OC", "class": "True"}
{"compoundStructureString": "COc1cc2c(cc1Nc1ncnc3c(OC)c(OC)c(OC)cc13)oc1ccccc12", "class": "True"}
{"compoundStructureString": "COc1cc2c(Nc3ccc(O)cc3)ncnc2c(OC)c1OC", "class": "False"}
{"compoundStructureString": "COc1cc2c(Nc3ccc(Br)cc3)ncnc2c(OC)c1OC", "class": "False"}
{"compoundStructureString": "COc1cc2c(Nc3cccc([N+](=O)[O-])c3)ncnc2c(OC)c1OC", "class": "False"}

In plain terms, does `COc1cc2c(Nc3ccc(F)cc3)ncnc2c(OC)c1OC` come in under 30 µM for IC50?
True

Again, but for `COc1cc2c(Nc3cccc(F)c3)ncnc2c(OC)c1OC`
True

* * *

system: A-431; assay: Growth inhibition of human A431 cells after 72 hrs by MTT assay; type: functional, cell-based; conditions: Homo sapiens, A-431, 72 h
propertyMeasured: pIC50
Convention used: pIC50 is expressed as -log10 of the molar concentration.

What does the record list as pIC50 for `COc1cc2c(Nc3cccc(Cl)c3)ncnc2c(OC)c1OC` ?
4.49

* * *

test system: Bcap37; assay: Growth inhibition of human Bcap37 cells after 72 hrs by MTT assay; type: functional, cell-based; conditions: Homo sapiens, Bcap37, 72 h
Quick reference: IC50 of the listed items.
Remember to quote the unit after the number.

Observe how each entry below is paired with its result.
{"compoundStructureString": "COc1cc2c(Nc3ccccc3F)ncnc2c(OC)c1OC", "IC50": "63.2 µM"}
{"compoundStructureString": "COc1cc2c(Nc3ccccc3[N+](=O)[O-])ncnc2c(OC)c1OC", "IC50": "29.9 µM"}
{"compoundStructureString": "COc1cc(Nc2ncnc3c(OC)c(OC)c(OC)cc23)cc(OC)c1OC", "IC50": "76.5 µM"}

So what's the measured IC50 for this one? `COc1cc2ncnc(Nc3cccc(Br)c3)c2cc1OC`
13.7 µM

Also, `COc1cc2c(Nc3cccc(Br)c3)ncnc2c(OC)c1OC` please.
12.3 µM

// same read-out, input: `COc1cc2c(Nc3ccc(Cl)cc3)ncnc2c(OC)c1OC`
52.2 µM

* * *

Quick list: pIC50 per entry.
tested on: A-431; experiment: Growth inhibition of human A431 cells after 72 hrs by MTT assay; format: functional, cell-based; conditions: Homo sapiens, A-431, 72 h
Answer as the number alone; pIC50 is minus log10 of concentration in mol/L.

Answered examples (2):
{"compoundStructureString": "COc1cc2c(Nc3cccc([N+](=O)[O-])c3)ncnc2c(OC)c1OC", "pIC50": 4.42}
{"compoundStructureString": "COc1cc2c(Nc3ccc(O)cc3)ncnc2c(OC)c1OC", "pIC50": 4.65}

Suppose we examine the compound `COc1cc2c(Nc3ccc(F)cc3)ncnc2c(OC)c1OC` ; what pIC50 value has been reported?
4.54

Same question for `COc1cc2c(N[C@H](C)c3ccccc3)ncnc2c(OC)c1OC` please.
4.68

`COc1cc2c(Nc3ccc(Br)cc3)ncnc2c(OC)c1OC` , same question.
4.38

Query `COc1cc2c(=NCc3ccccc3)[nH]cnc2c(OC)c1OC` next
4.67
